We begin with a simple list: items and their reported Efficacy.
target: Kappa-type opioid receptor (Homo sapiens, UniProt P41145); assay: Activation of human Opioid receptor kappa 1 expressed in chinese hamster ovary cells to enhance [35S]GTP-gamma-S, binding compared to U50,488H; format: functional, cell-based
Sequence (P41145 whole entry): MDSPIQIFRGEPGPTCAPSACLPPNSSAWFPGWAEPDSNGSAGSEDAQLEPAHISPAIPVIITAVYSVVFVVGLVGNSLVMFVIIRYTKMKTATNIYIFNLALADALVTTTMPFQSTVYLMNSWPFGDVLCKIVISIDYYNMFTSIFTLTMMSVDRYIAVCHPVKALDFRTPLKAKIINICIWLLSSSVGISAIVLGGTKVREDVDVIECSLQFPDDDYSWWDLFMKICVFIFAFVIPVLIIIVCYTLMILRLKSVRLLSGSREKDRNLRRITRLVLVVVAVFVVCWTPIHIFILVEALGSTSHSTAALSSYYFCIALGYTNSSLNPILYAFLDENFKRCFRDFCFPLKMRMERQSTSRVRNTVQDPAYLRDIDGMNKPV
The reply should be a number in %, with the unit left off.

# count of solved cases: 2
CCO[C@H]1C[C@@H](C(=O)OC)[C@]2(C)CC[C@H]3C(=O)O[C@H](c4ccoc4)C[C@]3(C)[C@H]2C1=O : 103
COC(=O)[C@@H]1C[C@@H](N(C)C)C(=O)[C@H]2[C@@]1(C)CC[C@H]1C(=O)O[C@H](c3ccoc3)C[C@]21C : 105

Please examine the following record next.
**Q:** Entry CCCC(=O)O[C@H]1C[C@@H](C(=O)OC)[C@]2(C)CC[C@H]3C(=O)O[C@H](c4ccoc4)C[C@]3(C)[C@H]2C1=O needs its Efficacy filled in; supply it.
**A:** 97
